target system: interaction between PD-1 and PD-L1 expressed on cell surfaces (Homo sapiens (Human), UniProt Q9NZQ7)
Sequence (Q9NZQ7 19-290): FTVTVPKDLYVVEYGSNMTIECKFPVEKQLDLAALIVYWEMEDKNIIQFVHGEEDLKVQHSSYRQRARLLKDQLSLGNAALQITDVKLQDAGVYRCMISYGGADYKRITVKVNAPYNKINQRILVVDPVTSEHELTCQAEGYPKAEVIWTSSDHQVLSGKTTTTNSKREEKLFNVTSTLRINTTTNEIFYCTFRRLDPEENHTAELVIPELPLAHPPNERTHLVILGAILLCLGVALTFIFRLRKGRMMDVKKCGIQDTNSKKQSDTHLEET
protocol details: Jurkat reporter gene cellular assay (Jurkat/NF-κB-luc/PD1 cells cocultured with Raji-PD-L1 cells, OKT-3 stimulation)
Type: cell-based
condition info: NF-κB-luc reporter activation fold, 6 hrs; read-out: Cell Activity EC50
measured endpoint: pEC50
When answering, recall that pEC50 equals minus log10 of the concentration in mol/L, and write that number alone.

Query COc1cc(C(=O)Nc2cccc(-c3cccc(NC(=O)c4cc(OC)c(CN[C@H]5COC(=O)C5)cn4)c3C)c2C)ncc1CN[C@H]1COC(=O)C1 yields pEC50 of 6.52

For reference, reported pEC50 for COc1cc(C(=O)Nc2cccc(-c3cccc(NC(=O)c4cc(OC)c(CN5CC[C@@H](O)C5)cn4)c3C)c2C)ncc1CN1CC[C@@H](O)C1 stands at 7.34

The recorded pEC50 for COc1cc(C(=O)Nc2cccc(-c3cccc(NC(=O)c4cc(OC)c(CN5CCCC[C@H]5C(=O)O)cn4)c3C)c2C)ncc1CN1CCCC[C@H]1C(=O)O is 6.88

// recorded pEC50 for COc1cc(C(=O)Nc2cccc(-c3cccc(NC(=O)c4cc(OC)c(CNCCOC(F)F)cn4)c3C)c2C)ncc1CNCCOC(F)F : 6.59

Entry COC(=O)CNCc1cnc(C(=O)Nc2cccc(-c3cccc(NC(=O)c4cc(C)c(CNCC(=O)OC)cn4)c3C)c2C)cc1C ; pEC50 = 5.98

So, COc1cc(C(=O)Nc2cccc(-c3cccc(NC(=O)c4cc(OC)c(CNC[C@H](O)CO)cn4)c3C)c2C)ncc1CNC[C@H](O)CO ? Its pEC50 was 6.96

Field pEC50 (entry Cc1c(NC(=O)c2cc(C3CC3)c(CN[C@@H](CC(=O)O)C(=O)O)cn2)cccc1-c1cccc(NC(=O)c2cc(C3CC3)c(CN[C@@H](CC(=O)O)C(=O)O)cn2)c1C ) reads 5.87

The molecule listed as COc1cc(C(=O)Nc2cccc(-c3cccc(NC(=O)c4cc(OC)c(CN[C@@H]5COC(=O)C5)cn4)c3C)c2C)ncc1CN[C@@H]1COC(=O)C1 shows pEC50 equal to 5.81

Looking up COc1cc(C(=O)Nc2cccc(-c3cccc(NC(=O)c4cc(OC)c(CNCCOC(C)=O)cn4)c3C)c2C)ncc1CNCCOC(C)=O , I found its pEC50 recorded as 5.16

Measured pEC50, COC(=O)[C@@H](CO)NCc1cnc(C(=O)Nc2cccc(-c3cccc(NC(=O)c4cc(OC)c(CN[C@H](CO)C(=O)OC)cn4)c3C)c2C)cc1OC : 5.87

So, Cc1c(NC(=O)c2cc(C3CC3)c(CN3CC(O)C3)cn2)cccc1-c1cccc(NC(=O)c2cc(C3CC3)c(CN3CC(O)C3)cn2)c1C ? Its pEC50 was 6.62

Short answer for Cc1c(NC(=O)c2cc(C3CC3)c(CN3CC[C@H](C(=O)O)C3)cn2)cccc1-c1cccc(NC(=O)c2cc(C3CC3)c(CN3CC[C@H](C(=O)O)C3)cn2)c1C : pEC50 was 7.68

Entry Cc1cc(C(=O)Nc2cccc(-c3cccc(NC(=O)c4cc(C)c(CN5CCCC[C@H]5C(=O)O)cn4)c3C)c2C)ncc1CN1CCCC[C@H]1C(=O)O ; pEC50 = 6.89

Entry COc1cc(C(=O)Nc2cccc(-c3cccc(NC(=O)c4cc(OC)c(CN5CC(C)(OC)C5)cn4)c3C)c2C)ncc1CN1CC(C)(OC)C1 — recorded pEC50 = 6.29

Entry COc1cc(C(=O)Nc2cccc(-c3cccc(NC(=O)c4cc(OC)c(CNCCN=S5(=O)CCCC5)cn4)c3C)c2C)ncc1CNCCN=S1(=O)CCCC1 , pEC50 reported as 6.88

Lab note: COC[C@H](NCc1cnc(C(=O)Nc2cccc(-c3cccc(NC(=O)c4cc(OC)c(CN[C@@H](COC)C(=O)OC)cn4)c3C)c2C)cc1OC)C(=O)OC gave pEC50 of 5.54

molecule Cc1c(NC(=O)c2cc(C3CC3)c(CNC3(C(=O)O)CC3)cn2)cccc1-c1cccc(NC(=O)c2cc(C3CC3)c(CNC3(C(=O)O)CC3)cn2)c1C , pEC50 observed: 7.11

The molecule identified as Cc1c(NC(=O)c2cc(C3CC3)c(CNC(C(=O)O)C(=O)O)cn2)cccc1-c1cccc(NC(=O)c2cc(C3CC3)c(CNC(C(=O)O)C(=O)O)cn2)c1C registered its pEC50 at 5.75

Documented pEC50 of COc1cc(C(=O)Nc2cccc(-c3cccc(NC(=O)c4cc(OC)c(CN[C@H]5C[C@@H](C(=O)O)C5)cn4)c3C)c2C)ncc1CN[C@H]1C[C@@H](C(=O)O)C1 : 6.24

For reference, reported pEC50 for COc1cc(C(=O)Nc2cccc(-c3cccc(NC(=O)c4cc(OC)c(CN[C@H](CO)C(=O)O)cn4)c3C)c2C)ncc1CN[C@H](CO)C(=O)O stands at 6.96
